- Assayed Target: PI3Kα H1047R in T47D cells (Homo sapiens, UniProt P42336, H1047R)
- Construct: endogenous in cells
- Sequence (P42336 whole entry H1047R): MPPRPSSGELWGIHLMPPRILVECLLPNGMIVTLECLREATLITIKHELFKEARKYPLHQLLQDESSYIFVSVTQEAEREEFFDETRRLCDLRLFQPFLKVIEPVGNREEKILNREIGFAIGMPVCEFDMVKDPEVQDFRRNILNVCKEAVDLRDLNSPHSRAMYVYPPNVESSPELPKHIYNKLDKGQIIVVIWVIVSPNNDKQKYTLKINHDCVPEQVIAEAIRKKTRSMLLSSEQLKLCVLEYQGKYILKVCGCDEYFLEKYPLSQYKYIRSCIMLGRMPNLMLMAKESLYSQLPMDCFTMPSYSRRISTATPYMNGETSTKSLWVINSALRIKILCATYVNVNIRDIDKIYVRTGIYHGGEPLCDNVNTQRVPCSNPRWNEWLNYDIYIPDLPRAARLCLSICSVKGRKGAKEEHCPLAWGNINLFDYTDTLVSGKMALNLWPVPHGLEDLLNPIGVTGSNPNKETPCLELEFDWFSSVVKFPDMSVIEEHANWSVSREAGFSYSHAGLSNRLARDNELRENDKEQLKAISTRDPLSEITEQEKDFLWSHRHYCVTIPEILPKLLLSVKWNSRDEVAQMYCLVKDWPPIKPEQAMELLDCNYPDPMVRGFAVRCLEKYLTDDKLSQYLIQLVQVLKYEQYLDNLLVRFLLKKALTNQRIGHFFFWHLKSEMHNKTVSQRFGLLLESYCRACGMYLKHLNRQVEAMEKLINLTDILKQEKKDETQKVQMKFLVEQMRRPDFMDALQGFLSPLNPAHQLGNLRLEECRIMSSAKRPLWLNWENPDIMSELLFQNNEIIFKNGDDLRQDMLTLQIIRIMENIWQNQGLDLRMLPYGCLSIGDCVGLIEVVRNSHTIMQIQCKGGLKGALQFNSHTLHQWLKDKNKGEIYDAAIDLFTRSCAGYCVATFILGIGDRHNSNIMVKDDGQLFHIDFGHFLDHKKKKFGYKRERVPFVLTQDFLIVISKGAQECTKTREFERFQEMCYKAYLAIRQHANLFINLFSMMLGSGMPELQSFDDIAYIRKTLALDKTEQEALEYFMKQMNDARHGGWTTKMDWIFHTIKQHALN
- Sequence (P27986 whole entry partner): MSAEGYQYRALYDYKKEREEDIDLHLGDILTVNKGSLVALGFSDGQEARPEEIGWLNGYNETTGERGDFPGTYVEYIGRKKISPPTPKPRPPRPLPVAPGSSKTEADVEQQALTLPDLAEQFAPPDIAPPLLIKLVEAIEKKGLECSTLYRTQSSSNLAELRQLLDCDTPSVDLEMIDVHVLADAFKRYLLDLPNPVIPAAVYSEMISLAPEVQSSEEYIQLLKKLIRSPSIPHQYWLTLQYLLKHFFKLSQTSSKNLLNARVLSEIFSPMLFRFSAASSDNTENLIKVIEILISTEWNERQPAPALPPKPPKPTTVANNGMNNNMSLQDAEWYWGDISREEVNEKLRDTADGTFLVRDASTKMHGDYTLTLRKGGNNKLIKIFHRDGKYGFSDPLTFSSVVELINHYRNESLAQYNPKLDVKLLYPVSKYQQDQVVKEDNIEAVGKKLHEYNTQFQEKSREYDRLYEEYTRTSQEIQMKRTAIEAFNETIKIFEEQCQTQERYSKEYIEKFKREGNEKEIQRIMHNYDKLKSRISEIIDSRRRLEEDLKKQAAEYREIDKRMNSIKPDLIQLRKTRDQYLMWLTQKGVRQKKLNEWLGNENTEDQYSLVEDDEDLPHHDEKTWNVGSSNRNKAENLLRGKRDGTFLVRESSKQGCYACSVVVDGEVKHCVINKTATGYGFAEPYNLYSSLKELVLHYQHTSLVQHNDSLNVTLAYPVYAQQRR
- Experiment Description: PI3Kα cellular assay: T47D pAKT S473 HTRF
- Assay Setup: T47D cells (H1047R), serum starved, 1 hr compound, 20 ng/ml EGF 10 min
Measurement Type: IC50

# Compound, Measurement Type, Result
measured = [
    ("Cc1cc([C@H](C)Nc2ccccc2C(=O)O)c2cc(-c3ccc(F)cc3)n(C)c(=O)c2c1", "IC50", "0.75 to 2 µM"),
]

query: Looking for the measured IC50 of Cc1cc([C@H](C)Nc2ccccc2C(=O)O)c2nc(N3CCC(C)(C)CC3)ncc2c1 , can you help?
result: ≥ 2 µM

query: // same read-out, input: Cc1cc(C(C)Nc2ccccc2C(=O)O)c2cc(N3CCOCC3)ncc2c1 (stereo not shown)
result: < 0.75 µM

query: // same read-out, input: Cc1cc(C(C)Nc2ccccc2C(N)=O)c2nc(-c3cccnc3)n(C)c(=O)c2c1 (stereo not shown)
result: 0.75 to 2 µM

query: // same read-out, input: Cc1cc([C@@H](C)Nc2ccccc2C(=O)O)c2nc(N3Cc4ccccc4C3)[nH]c(=O)c2c1
result: ≥ 2 µM

query: // same read-out, input: Cc1cc(C(C)Nc2ccccc2C(=O)O)c2cc(-c3ccc(F)cc3)n(C)c(=O)c2c1 (stereo not shown)
result: < 0.75 µM

----------
- Assayed Target: PI3K H1047R (Homo sapiens, UniProt P42336, H1047R)
- Experiment Description: PI3K H1047R ADP-Glo (PI/PS)
- Format: biochemical
- Parameters: reference not given here
- Assay Setup: H1047R selectivity
Measurement Type: PI3K H1047R ADP-Glo (PI/PS) IC50: H1047R Selectivity

# Molecule, Assayed Target, Result
data = [
    ("Cc1cc([C@H](C)Nc2ccccc2C(=O)O)c2cc(-c3ccc4c(c3)c(C)nn4C)n(C)c(=O)c2c1", "PI3K H1047R (Homo sapiens, UniProt P42336, H1047R)", "C (C denotes ≤5-fold)"),
    ("Cc1cc(C(C)Nc2ccccc2C(=O)O)c2cc(-c3ccnc(C4CC4)c3)n(C)c(=O)c2c1 (stereo not shown)", "PI3K H1047R (Homo sapiens, UniProt P42336, H1047R)", "A (A denotes >20-fold)"),
    ("Cc1cc(C(C)Nc2ccccc2C(=O)O)c2nc(-c3ccc(F)cc3)n(C)c(=O)c2c1 (stereo not shown)", "PI3K H1047R (Homo sapiens, UniProt P42336, H1047R)", "A (A denotes >20-fold)"),
    ("Cc1cc(C(C)Nc2ccccc2C(=O)O)c2cc(-c3ccc(F)cc3)n(C)c(=O)c2c1 (stereo not shown)", "PI3K H1047R (Homo sapiens, UniProt P42336, H1047R)", "A (A denotes >20-fold)"),
    ("Cc1cc(C(C)Nc2ccccc2C(=O)O)c2nc(-c3ccc4c(c3)c(C)nn4C)n(C)c(=O)c2c1 (stereo not shown)", "PI3K H1047R (Homo sapiens, UniProt P42336, H1047R)", "A (A denotes >20-fold)"),
]

query: Looking for the measured PI3K H1047R ADP-Glo (PI/PS) IC50: H1047R Selectivity of Cc1cc(C(C)Nc2ccccc2C(=O)O)c2cc(OC3CCOCC3)ncc2c1 (stereo not shown) , can you help?
result: A (A denotes >20-fold)

query: // same read-out, input: Cc1cc(C(C)Nc2ccccc2C(=O)O)c2cc(-c3ccc4c(c3)c(C)nn4C)ncc2c1 (stereo not shown)
result: A (A denotes >20-fold)
